Values were extracted from patent US20110287512.

Reported binding signal (normalized ELISA), ZFP8196 linker TPGLHRPKP (artificial).

TTAGATAAACTGTGCAAAAGGCTATC (double strand) [8196 target gap TG]; 0.01

Input TTAGATAAACTGACAAAAGGCTATC (double strand) [8196 target gap A] . Output binding signal (normalized ELISA): 0.19

binding signal (normalized ELISA) for TTAGATAAACTGACCAAAAGGCTATC (double strand) [8196 target gap AC] is 0

Record summary for TTAGATAAACTGGCAAAAGGCTATC (double strand) [8196 target gap G] : reported binding signal (normalized ELISA) = 0.65

So, TTAGATAAACTGTCCAAAAGGCTATC (double strand) [8196 target gap TC] ? Its binding signal (normalized ELISA) was 0.01

What the record says about TTAGATAAACTGCCAAAAGGCTATC (double strand) [8196 target gap C] : binding signal (normalized ELISA) is 0.1
